What TGI was measured for each of the following?
# Test system: NCI-H23 lung
# Protocol: NCI tumour cell line growth inhibition, 48 h

Query: Provide value of TGI for this record tested with NCI-H23 lung: CC[C@H]1CNC(=O)CC1CC(=O)OC (some centres not stated)
Reply: > 100 µM

Query: Provide value of TGI for this record tested with NCI-H23 lung: `COc1ccc(-c2cc(-c3ccc(Cl)cc3)c(C#N)c(=O)n2CCCCCC(=O)Nc2ccccc2N)cc1`
Reply: 27.3 µM

Query: Provide value of TGI for this record tested with NCI-H23 lung: CC(C)OC(=O)OCOP(=O)(OCOC(=O)OC(C)C)C1CCCN(O)C1=O (configuration not stated)
Reply: > 100 µM

Query: Provide value of TGI for this record tested with NCI-H23 lung: `O=C(CNC(=O)c1cccc2ccccc12)Nc1ccccc1Oc1ccc(O)cc1`
Reply: > 25 µM

Query: Provide value of TGI for this record tested with NCI-H23 lung: `CC(=O)O[C@H]1CC[C@@]2(C)C(=CC[C@@H]3[C@@H]2CC[C@]2(C)C(=O)/C(=C\c4ccccc4)C[C@@H]32)C1`
Reply: > 100 µM

Query: Provide value of TGI for this record tested with NCI-H23 lung: `O=C(O)c1ccc2nc(-c3ccccn3)c(-c3ccccn3)nc2c1`
Reply: > 100 µM

Query: Provide value of TGI for this record tested with NCI-H23 lung: `Nc1nc(-c2ccccn2)c(-c2ccc3ncccc3n2)s1`
Reply: > 25 µM

Query: Provide value of TGI for this record tested with NCI-H23 lung: Nc1nc(N)c2nc(CNc3ccc(C(=O)NC(CCC(=O)O)C(=O)O)cc3)cnc2n1 (configuration not stated)
Reply: > 100 µM

Query: Provide value of TGI for this record tested with NCI-H23 lung: Nc1cc2c(C3OC(CO)C(O)C3O)[nH]nc2c(=S)[nH]1 (configuration not stated)
Reply: > 100 µM

Query: Provide value of TGI for this record tested with NCI-H23 lung: `CC1(C)N=C(N)N=C(N)N1c1cccc(CC(=O)Nc2ccccc2)c1`
Reply: > 100 µM

Query: Provide value of TGI for this record tested with NCI-H23 lung: Cc1cc(Br)ccc1N=NC1C(=O)ON=C1c1ccccc1 (configuration not stated)
Reply: > 100 µM

Query: Provide value of TGI for this record tested with NCI-H23 lung: `CCC[CH2][Sn]1([CH2]CCC)[O]C(=O)c2cccnc2[S]1`
Reply: 5.41 µM

Query: Provide value of TGI for this record tested with NCI-H23 lung: `CC1(C)CCC(c2ccc(Cl)cc2)=C(CN2CCN(c3ccc(C(=O)NS(=O)(=O)c4ccc(N[C@H](CCN5CCOCC5)CSc5ccccc5)c(S(=O)(=O)C(F)(F)F)c4)cc3)CC2)C1`
Reply: 3.96 µM

Query: Provide value of TGI for this record tested with NCI-H23 lung: `O=c1[nH]nc(Nc2ccc(Cl)cc2)c2nnn(-c3ccc([N+](=O)[O-])cc3)c12`
Reply: 24.9 µM

Query: Provide value of TGI for this record tested with NCI-H23 lung: `COc1cc(N(CCC#N)CCC#N)ccc1/C(N=Nc1cccc([N+](=O)[O-])c1)=N\NC(=O)c1ccc(C)cc1`
Reply: > 100 µM

Query: Provide value of TGI for this record tested with NCI-H23 lung: `COc1ccccc1Nc1nc(N)nc(N)c1N`
Reply: > 100 µM

Query: Provide value of TGI for this record tested with NCI-H23 lung: `CC(=O)[O-].O=C([CH-]C(=O)c1ccccc1)c1ccccc1.O=C([CH-]C(=O)c1ccccc1)c1ccccc1.[Dy+3]`
Reply: 37 µM

Query: Provide value of TGI for this record tested with NCI-H23 lung: `C[C@@H](NC(=O)Nc1cccc(C(=O)Nc2cc(C(C)(C)C)ccc2C(=O)O)n1)c1ccccc1`
Reply: > 100 µM

Query: Provide value of TGI for this record tested with NCI-H23 lung: `CCN(CC)CCN1C(=O)c2cccc3cc(N)cc(c23)C1=O`
Reply: 20.3 µM

Query: Provide value of TGI for this record tested with NCI-H23 lung: `CC(C)c1c(C(=O)Nc2ccccc2)c(-c2ccccc2)c(-c2ccc(F)cc2)n1CC[C@@H](O)C[C@@H](O)CC(=O)O`
Reply: > 100 µM

Query: Provide value of TGI for this record tested with NCI-H23 lung: C/C=C/C(C/C=C(\C)CO[Si](C)(C)C(C)(C)C)O[Si](C)(C)C(C)(C)C (configuration not stated)
Reply: > 100 µM

Query: Provide value of TGI for this record tested with NCI-H23 lung: `C=C1C(=O)O[C@H]2[C@H]1CC/C(COC(=O)NCc1ccc(Cn3c(=O)sn(CCCI)c3=O)cc1)=C\CC[C@@]1(C)O[C@@H]21`
Reply: 4.91 µM
